Assayed target: Tyrosine-protein kinase SYK (Homo sapiens) (UniProt P43405)
Applied conditions: at 1 µM
Description: GSK_PKIS: SYK mean inhibition at 1 uM [Nanosyn]

{"columns": ["Compound", "Output unit", "inhibition"],
 "data": [
  ["O=C(Nc1n[nH]c2nc(-c3ccco3)c(Br)cc12)C1CC1", "%", -0.45],
  ["COc1cc2ncn(-c3cc(OCc4ccccc4Cl)c(C(N)=O)s3)c2cc1OC", "%", 1.86],
  ["O=C1NC(=O)C(c2ccccc2Cl)=C1Nc1cccc(O)c1", "%", -0.68],
  ["CNC(=O)c1cncc(/C=C/c2c(Cl)cccc2Cl)c1", "%", 1],
  ["[O-][S+]1CCN(Cc2ccc(-c3ccc4ncnc(Nc5ccc(OCc6ccccc6)c(F)c5)c4c3)o2)CC1", "%", -0.11],
  ["CCn1c(-c2nonc2N)nc2c(C#CC(C)(C)O)nc(OC[C@@H](N)c3ccccc3)cc21", "%", 1.52],
  ["COc1ccc(COc2ccc(Cc3cnc(N)nc3N)cc2OC)cc1", "%", 0.65],
  ["Fc1cccc(COc2ccc(Nc3ncnc4cc(-c5ccc[nH]5)sc34)cc2Cl)c1", "%", 2.33],
  ["CC1=C(C(=O)Nc2ccc3[nH]ncc3c2)C(c2ccc3ccccc3c2)CC(=O)N1 (stereo not given)", "%", 2.59],
  ["CCn1c(-c2nonc2N)nc2c(N3CCCC3)nccc21", "%", 2.9],
  ["CS(=O)(=O)CCNCc1ccc(-c2ccc3ncnc(Nc4ccc(OCc5ccccc5)c(Cl)c4)c3c2)o1", "%", 1.51],
  ["COC(=O)Nc1nc2cc(Oc3cccc(NC(=O)Nc4cc(C(F)(F)F)ccc4F)c3)ccc2[nH]1", "%", -0.22],
  ["COc1cc2ncn(-c3cc(O[C@H](C)c4ccccc4Cl)c(C(N)=O)s3)c2cc1OC", "%", -0.3],
  ["COc1cc2c(cc1Nc1nc(N3CCc4ccccc43)c3cc[nH]c3n1)N(C(=O)CN(C)C)CC2", "%", -0.01],
  ["CC(C)=Cc1cccc2c1/C(=N/Nc1ccc(S(N)(=O)=O)cc1)C(=O)N2", "%", -2.03],
  ["NC(=O)c1cccc(Nc2nccc(Nc3cccc4[nH]ncc34)n2)c1", "%", 25.4],
  ["COC(=O)Nc1nc2cc(Oc3ccc(NC(=O)Nc4cccc(C(=O)O)c4)cc3)ccc2[nH]1", "%", -0.23],
  ["Fc1cccc(COc2ccc(Nc3ncnc4sc(-c5cccs5)cc34)cc2Cl)c1", "%", 1.01],
  ["CCn1c(-c2nonc2N)nc2c(C#CC(C)(C)O)nc(CN3CCCC3)cc21", "%", -0.03],
  ["O=C1NC(=O)C(c2cccc(Cl)c2)=C1Nc1ccc(O)c(Cl)c1", "%", 0.79]
]}

* * *

Recorded inhibition, one value per entry.
Assayed target: Rhodopsin kinase GRK7 (Homo sapiens);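 note: reported figures are mean percent inhibition of GRK7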
Applied conditions: at 0.1 µM

{"columns": ["Compound", "Output unit", "inhibition"],
 "data": [
  ["Nc1nc(-c2ccccn2)c(-c2ccc3ncccc3n2)s1", "%", 1.26],
  ["CC(C)=Cc1cccc2c1/C(=N/Nc1ccc(S(N)(=O)=O)cc1)C(=O)N2", "%", 1.04],
  ["CS(=O)(=O)CCNCc1nc(-c2ccc3ncnc(Nc4ccc(F)c(Cl)c4)c3c2)cs1", "%", 5.77],
  ["[O-][S+]1CCN(Cc2ccc(-c3ccc4ncnc(Nc5ccc(OCc6ccccc6)c(F)c5)c4c3)o2)CC1", "%", 1.86],
  ["CC1=C(C(=O)Nc2ccc3[nH]ncc3c2)C(c2ccc(Cl)c(Cl)c2)CC(=O)N1 (stereo not given)", "%", -1.63],
  ["COc1cc(C=NNc2ncnc3c2cnn3-c2ccccc2)ccc1O", "%", -0.04],
  ["NC(=O)c1cccc(Nc2nccc(Nc3cccc4[nH]ncc34)n2)c1", "%", -7.6],
  ["c1cnn2ncc(-c3ccnc(Nc4ccc5c(c4)OCCO5)n3)c2c1", "%", 4.35],
  ["O=C(Nc1n[nH]c2nc(-c3ccco3)c(Br)cc12)C1CC1", "%", 3.55],
  ["COc1cccc(-n2ncc3c(N/N=C/c4cccc(F)c4)ncnc32)c1", "%", 1.93]
]}

* * *

Recorded inhibition, one value per entry.
Assayed target: Inhibitor of nuclear factor kappa-B kinase subunit epsilon (Homo sapiens) (UniProt Q14164);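 note: mean inhibition of IKKε reported, from the GSK PKIS dataset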
Sequence (whole entry): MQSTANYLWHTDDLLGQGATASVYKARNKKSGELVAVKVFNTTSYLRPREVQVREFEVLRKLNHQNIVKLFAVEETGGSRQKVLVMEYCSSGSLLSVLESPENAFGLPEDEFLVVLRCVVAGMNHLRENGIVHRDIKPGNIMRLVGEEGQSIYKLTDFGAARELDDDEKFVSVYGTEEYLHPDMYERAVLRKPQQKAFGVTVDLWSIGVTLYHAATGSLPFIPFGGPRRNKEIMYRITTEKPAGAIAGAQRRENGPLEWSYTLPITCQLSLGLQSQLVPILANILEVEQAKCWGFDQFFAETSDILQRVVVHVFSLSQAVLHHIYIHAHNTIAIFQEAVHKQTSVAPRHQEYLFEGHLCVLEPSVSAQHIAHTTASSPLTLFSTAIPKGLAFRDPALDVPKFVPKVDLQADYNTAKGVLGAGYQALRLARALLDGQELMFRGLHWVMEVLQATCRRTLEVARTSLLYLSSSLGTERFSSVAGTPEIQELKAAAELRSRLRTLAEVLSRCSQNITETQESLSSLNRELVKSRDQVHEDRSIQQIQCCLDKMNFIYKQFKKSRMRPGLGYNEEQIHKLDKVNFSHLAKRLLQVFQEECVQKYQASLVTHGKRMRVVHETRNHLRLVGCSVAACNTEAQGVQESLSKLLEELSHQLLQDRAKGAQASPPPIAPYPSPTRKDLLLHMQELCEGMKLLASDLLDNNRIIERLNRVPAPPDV
Applied conditions: at 0.1 µM

{"columns": ["Smiles representation", "Assayed target", "inhibition (%)"],
 "data": [
  ["COC(=O)Nc1nc2cc(Oc3cccc(NC(=O)Nc4cc(C(F)(F)F)ccc4F)c3)ccc2[nH]1", "Inhibitor of nuclear factor kappa-B kinase subunit epsilon (Homo sapiens) (UniProt Q14164)", 1.54],
  ["CCn1c(-c2nonc2N)nc2cncc(C(=O)N3CCNCC3)c21", "Inhibitor of nuclear factor kappa-B kinase subunit epsilon (Homo sapiens) (UniProt Q14164)", 12.2],
  ["COc1cc2ncn(-c3cc(OCc4ccccc4C(F)(F)F)c(C(N)=O)s3)c2cc1OC", "Inhibitor of nuclear factor kappa-B kinase subunit epsilon (Homo sapiens) (UniProt Q14164)", 6.51],
  ["O=C1Nc2ccc(C(=O)c3ccco3)cc2C1=Cc1cc(Cl)c(O)c(Cl)c1", "Inhibitor of nuclear factor kappa-B kinase subunit epsilon (Homo sapiens) (UniProt Q14164)", 24.9],
  ["COc1cc(C)c(NC(=O)CN(C)C)cc1Nc1nc(Nc2cccc(F)c2C(N)=O)c2cc[nH]c2n1", "Inhibitor of nuclear factor kappa-B kinase subunit epsilon (Homo sapiens) (UniProt Q14164)", 1.27],
  ["COc1ccc(-c2nn3ncccc3c2-c2ccnc(Nc3ccc(Cl)c(C(F)(F)F)c3)n2)cc1", "Inhibitor of nuclear factor kappa-B kinase subunit epsilon (Homo sapiens) (UniProt Q14164)", 4.71],
  ["CCCN1CCC=C(c2ccc(Nc3nc(Nc4ccccc4C(N)=O)c4cc[nH]c4n3)c(C)c2)C1", "Inhibitor of nuclear factor kappa-B kinase subunit epsilon (Homo sapiens) (UniProt Q14164)", 9.65],
  ["COc1cc2ncn(-c3cc(O[C@@H](C)c4ccccc4Cl)c(C(N)=O)s3)c2cc1OC", "Inhibitor of nuclear factor kappa-B kinase subunit epsilon (Homo sapiens) (UniProt Q14164)", 5.3],
  ["Cc1cccc(-c2n[nH]cc2-c2ccc3ncccc3n2)n1", "Inhibitor of nuclear factor kappa-B kinase subunit epsilon (Homo sapiens) (UniProt Q14164)", 0.62]
]}

* * *

Assayed target: Cyclin-dependent kinase 6 (Homo sapiens) (UniProt Q00534);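 note: mean percent inhibition of the kinase bound to its cyclin partner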
Sequence (Q00534 whole entry): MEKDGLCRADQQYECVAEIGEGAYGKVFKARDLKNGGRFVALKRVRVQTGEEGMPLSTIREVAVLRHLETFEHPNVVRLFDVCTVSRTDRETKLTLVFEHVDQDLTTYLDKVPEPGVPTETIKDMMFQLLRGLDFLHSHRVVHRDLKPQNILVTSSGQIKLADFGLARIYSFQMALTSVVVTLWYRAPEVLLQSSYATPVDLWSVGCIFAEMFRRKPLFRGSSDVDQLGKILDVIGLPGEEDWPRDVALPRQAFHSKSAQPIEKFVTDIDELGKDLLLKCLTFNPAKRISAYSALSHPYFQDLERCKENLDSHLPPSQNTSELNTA
Applied conditions: at 1 µM
Recorded inhibition, one value per entry.

{"columns": ["Smiles representation", "Output unit", "inhibition"],
 "data": [
  ["CS(=O)(=O)CCN(CC#N)Cc1ccc(-c2ccc3ncnc(Nc4ccc(OCc5cccc(F)c5)c(Cl)c4)c3c2)o1", "%", -4.69],
  ["Fc1cccc(COc2ccc(Nc3ncnc4sc(-c5cccs5)cc34)cc2Cl)c1", "%", 0.5],
  ["CCn1c(-c2nonc2N)nc2ccncc21", "%", -1.56],
  ["c1cnn2ncc(-c3ccnc(Nc4ccc5c(c4)OCCO5)n3)c2c1", "%", 85],
  ["CNC(=O)c1cncc(/C=C/c2c(Cl)cccc2Cl)c1", "%", -5.69],
  ["CS(=O)(=O)CCNCc1nc(-c2ccc3ncnc(Nc4ccc(F)c(Cl)c4)c3c2)cs1", "%", -1.47],
  ["CS(=O)(=O)CCNCc1ccc(-c2ccc3ncnc(Nc4ccc(OCc5ccccc5)c(Cl)c4)c3c2)o1", "%", -2.22],
  ["COC(=O)Nc1nc2cc(Oc3ccc(NC(=O)Nc4cccc(C(=O)O)c4)cc3)ccc2[nH]1", "%", 2.67],
  ["Cn1cc(C=C2C(=O)Nc3cccnc32)c2ccccc21", "%", 8.56],
  ["COc1ccc(-c2nn3ncccc3c2-c2ccnc(Nc3ccc(Cl)c(C(F)(F)F)c3)n2)cc1", "%", 1.73],
  ["CCCN1CCC=C(c2ccc(Nc3nc(Nc4ccccc4C(N)=O)c4cc[nH]c4n3)c(C)c2)C1", "%", 5.64],
  ["COc1cc2ncn(-c3cc(O[C@@H](C)c4ccccc4Cl)c(C(N)=O)s3)c2cc1OC", "%", 1.56],
  ["NC(=O)c1cccc(Nc2nccc(Nc3cccc4[nH]ncc34)n2)c1", "%", 0.3],
  ["COc1cccc(-n2ncc3c(N/N=C/c4cccc(F)c4)ncnc32)c1", "%", 17.1],
  ["NC(=O)c1ccc(-c2nc(-c3ccccn3)c(-c3ccc4c(c3)OCO4)[nH]2)cc1", "%", -1.82],
  ["CCn1c(-c2nonc2N)nc2cncc(C(=O)N3CCNCC3)c21", "%", 3.06],
  ["Cc1nnc(-c2ccc(C)c(-c3ccc(C(=O)Nc4cccc(C#N)c4)cc3)c2)o1", "%", 3.14],
  ["COc1cc2ncn(-c3cc(OCc4ccccc4Cl)c(C(N)=O)s3)c2cc1OC", "%", 0.43],
  ["Nc1ncnc2occ(-c3ccc(NC(=O)Nc4cccc(C(F)(F)F)c4)cc3)c12", "%", 2.21],
  ["Cc1cccc(-c2n[nH]cc2-c2ccc3ncccc3n2)n1", "%", 0.55],
  ["N#Cc1c(NC(=O)c2cccc3ccccc23)sc2c1CCCC2", "%", 4.55]
]}
